Values were extracted from paper PMC3961306.

# TARGET_OR_SYSTEM: panel of more than 300 wild-type and mutant kinases (313 kinase panel) (Homo sapiens)
# Sequence (P51957 whole entry, change not shown): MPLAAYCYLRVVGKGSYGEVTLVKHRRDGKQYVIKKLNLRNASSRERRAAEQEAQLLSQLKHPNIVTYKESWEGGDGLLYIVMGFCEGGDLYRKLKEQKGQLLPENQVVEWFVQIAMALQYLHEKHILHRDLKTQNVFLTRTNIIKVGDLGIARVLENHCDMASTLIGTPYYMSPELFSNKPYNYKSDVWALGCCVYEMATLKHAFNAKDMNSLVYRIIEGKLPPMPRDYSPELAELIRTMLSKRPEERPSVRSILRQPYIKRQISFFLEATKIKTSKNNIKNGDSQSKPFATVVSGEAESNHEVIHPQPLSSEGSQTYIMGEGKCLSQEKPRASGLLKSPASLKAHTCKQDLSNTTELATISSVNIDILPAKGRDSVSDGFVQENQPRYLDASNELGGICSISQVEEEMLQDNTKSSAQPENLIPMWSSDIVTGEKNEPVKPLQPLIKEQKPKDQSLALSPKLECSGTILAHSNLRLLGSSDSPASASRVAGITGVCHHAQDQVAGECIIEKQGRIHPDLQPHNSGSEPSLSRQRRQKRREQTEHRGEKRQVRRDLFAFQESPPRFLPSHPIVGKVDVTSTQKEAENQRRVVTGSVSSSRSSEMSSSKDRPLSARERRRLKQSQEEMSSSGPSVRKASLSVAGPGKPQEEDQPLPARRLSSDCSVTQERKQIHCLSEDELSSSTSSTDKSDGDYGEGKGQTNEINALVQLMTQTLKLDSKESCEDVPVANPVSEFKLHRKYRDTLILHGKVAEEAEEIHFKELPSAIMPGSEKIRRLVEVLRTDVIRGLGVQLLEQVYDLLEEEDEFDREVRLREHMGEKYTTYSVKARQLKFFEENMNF
# EXPERIMENTAL_DETAILS: Kinase profiling in a biochemical assay panel (mobility shift assays and ELISA), %-inhibition at 1 μM; selectivity entropy
# PROTOCOL_CONDITIONS: kinase NEK4; 1 μM
ENDPOINT: %-inhibition of NEK4 (%)
Number only, in %; omit the unit.

Solved cases below.
[
  {
    "COMPOUND": "CO[C@H]1C[C@@H]2CC[C@@H](C)[C@@](O)(O2)C(=O)C(=O)N2CCCC[C@H]2C(=O)O[C@H]([C@H](C)C[C@@H]2CC[C@@H](OC(=O)C(C)(CO)CO)[C@H](OC)C2)CC(=O)[C@H](C)/C=C(\\C)[C@@H](O)[C@@H](OC)C(=O)[C@H](C)C[C@H](C)/C=C/C=C/C=C/1C",
    "%-inhibition of NEK4, %": 0.416
  },
  {
    "COMPOUND": "Cc1cn(-c2cc(NC(=O)c3ccc(C)c(Nc4nccc(-c5cccnc5)n4)c3)cc(C(F)(F)F)c2)cn1",
    "%-inhibition of NEK4, %": -22
  },
  {
    "COMPOUND": "CS(=O)(=O)CCNCc1ccc(-c2ccc3ncnc(Nc4ccc(OCc5cccc(F)c5)c(Cl)c4)c3c2)o1",
    "%-inhibition of NEK4, %": 0.649
  },
  {
    "COMPOUND": "COc1cc2c(Nc3ccc(Br)cc3F)ncnc2cc1OCC1CCN(C)CC1",
    "%-inhibition of NEK4, %": -6.51
  },
  {
    "COMPOUND": "CC(C)(C)c1nc(-c2cccc(NS(=O)(=O)c3c(F)cccc3F)c2F)c(-c2ccnc(N)n2)s1",
    "%-inhibition of NEK4, %": 4
  }
]

Task item: Suppose we examine the compound COc1cc2nccc(Oc3ccc(NC(=O)C4(C(=O)Nc5ccc(F)cc5)CC4)cc3)c2cc1OC [cabozantinib] ; what %-inhibition of NEK4 value has been reported?
Reply: 16

Task item: Would you kindly repeat that for CCCS(=O)(=O)Nc1ccc(F)c(C(=O)c2c[nH]c3ncc(-c4ccc(Cl)cc4)cc23)c1F ?
Reply: -0.416
